Ref: the supplement of paper PMC10567573

B1: DLC1 (parent)
chain: KRSWEEHVTHWMGQPFNSDDRNTA

- Variants of: B1
- procedure-details: protein stability index of a GFP-peptide fusion (GPS, HEK-293T) (PSI 1-6); higher = more stable;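 further: lentivirally expressed fusions sorted by FACS into six bins by GFP to DsRed ratio, PSI derived from sequencing read proportions per bin multiplied by bin number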
- run-parameters: c terminus: a fixed tail appended
# label = fulfilled if protein stability index >= 3 else not fulfilled

Worked examples, 3 variants total:
primary-sequence	class-name
KRSWEEHVTHWMGQPFNSDDRNVA [T23V]	not fulfilled
KRSWEEYVTHWMGQPFNSDDRNTA [H7Y]	not fulfilled
KRSWEEHVTFWMGQPFNSDDRNTA [H10F]	not fulfilled

Query: Hi, just wondering whether KRSWEEHVTHWMGQPFNSDDSNTA [R21S] shows protein stability index of 3 or higher.
Reply: not fulfilled

Query: Hi, just wondering whether KRSWEENVTHWMGQPFNSDDRNTA [H7N] shows protein stability index of 3 or higher.
Reply: fulfilled

Query: Hi, just wondering whether KRSWEEHVTHWMGQPFLSDDRNTA [N17L] shows protein stability index of 3 or higher.
Reply: not fulfilled

Query: Hi, just wondering whether KRSWEEHVTHWMGQPFNSDDRLTA [N22L] shows protein stability index of 3 or higher.
Reply: not fulfilled

Query: Hi, just wondering whether KRSWEETVTHWMGQPFNSDDRNTA [H7T] shows protein stability index of 3 or higher.
Reply: fulfilled
